Cited source for all entries: PubChem BioAssay AID342

Tested on: Swiss mice, Sarcoma 180 sc, mean tumor weight T/C
Test: NCI In Vivo Anticancer Drug Screen. Data for tumor model Sarcoma 180 (subcutaneous) in Swiss mice
Conditions: endpoint: mean tumor weight; dose: 45.0 mg/kg/injection; schedule: Q01DX007 (ip); vehicle: carboxymethylcellulose (CMC); higher = larger tumour

[
  {
    "molecule": "CC(=O)OCC1OC(n2cnc3c(=S)nc[nH]c32)C(OC(C)=O)C1OC(C)=O (centres undefined)",
    "T/C": "54 % of control"
  },
  {
    "molecule": "CN(C)c1nc(N(C)C)nc(N(C)C)n1",
    "T/C": "88 % of control"
  },
  {
    "molecule": "CC(=O)Nc1ccc(/C=N/Nc2ccc([N+](=O)[O-])cn2)cc1",
    "T/C": "62 % of control"
  },
  {
    "molecule": "S=P(N1CCCCCC1)(N1CC1)N1CC1",
    "T/C": "57 % of control"
  }
]

----------
System: Swiss mice, Sarcoma 180 sc, mean tumor weight T/C
Assay: NCI In Vivo Anticancer Drug Screen. Data for tumor model Sarcoma 180 (subcutaneous) in Swiss mice
Details: endpoint: mean tumor weight; dose: 66.0 mg/kg/injection; schedule: Q01DX007 (ip); vehicle: carboxymethylcellulose (CMC); higher = larger tumour
observed-property: T/C

[
  {
    "structure-as-smiles": "CCOc1ccc2nc(S(N)(=O)=O)sc2c1",
    "observed-property": "T/C",
    "meas-value": "51 % of control"
  },
  {
    "structure-as-smiles": "CCOC(=O)Sc1ncnc2nc[nH]c12",
    "observed-property": "T/C",
    "meas-value": "61 % of control"
  },
  {
    "structure-as-smiles": "[N-]=[N+]=NC1(C(=O)O)CCCC1",
    "observed-property": "T/C",
    "meas-value": "71 % of control"
  },
  {
    "structure-as-smiles": "CC=C(/C(=C/C)c1ccc(O)cc1)c1ccc(O)cc1",
    "observed-property": "T/C",
    "meas-value": "35 % of control"
  },
  {
    "structure-as-smiles": "O=C1c2cc(Cl)ccc2-c2c(Cl)cc(Cl)cc21",
    "observed-property": "T/C",
    "meas-value": "65 % of control"
  },
  {
    "structure-as-smiles": "[Cl][Pt+2]([Cl])([Cl])[Cl].[Na+].[S-]c1ncnc2nc[nH]c12.[S-]c1ncnc2nc[nH]c12",
    "observed-property": "T/C",
    "meas-value": "57 % of control"
  },
  {
    "structure-as-smiles": "S=c1nc[nH]c2nc[nH]c12",
    "observed-property": "T/C",
    "meas-value": "34 % of control"
  }
]

----------
Test system: Swiss mice, Sarcoma 180 sc, mean tumor weight T/C
Test: NCI In Vivo Anticancer Drug Screen. Data for tumor model Sarcoma 180 (subcutaneous) in Swiss mice
Details: endpoint: mean tumor weight; dose: 12.5 mg/kg/injection; schedule: Q01DX007 (ip); vehicle: carboxymethylcellulose (CMC); higher = larger tumour
observed-property: T/C

[
  {
    "molecule": "CSc1nc(C)c(Br)c(Sc2nc(N)nc3nc[nH]c23)n1",
    "meas-value": "69 % of control"
  },
  {
    "molecule": "COC1C(OC(=O)/C=C/C=C/C=C/C=C/C(=O)O)CCC2(CO2)C1C1(C)OC1CC=C(C)C (centres undefined)",
    "meas-value": "84 % of control"
  },
  {
    "molecule": "N#[N+]c1n[nH]nc1C(N)=O",
    "meas-value": "114 % of control"
  },
  {
    "molecule": "CCCCn1cnc2c(=S)nc[nH]c21",
    "meas-value": "77 % of control"
  },
  {
    "molecule": "COc1ccc2[nH]c3c(C)c4ccncc4c(C)c3c2c1",
    "meas-value": "77 % of control"
  },
  {
    "molecule": "CCc1nc(N)nc(N)c1-c1ccc(Cl)cc1",
    "meas-value": "88 % of control"
  },
  {
    "molecule": "CN=C(N)c1ccc(N=C(N)c2ccc(C(N)=Nc3ccc(C(N)=NC)cc3)cc2)cc1",
    "meas-value": "124 % of control"
  },
  {
    "molecule": "O=[N+]([O-])c1cccc2nsnc12",
    "meas-value": "114 % of control"
  },
  {
    "molecule": "COC(=O)C1=CO[C@H](C)[C@@H]2CN3CCc4c([nH]c5ccccc45)[C@@H]3C[C@H]12",
    "meas-value": "110 % of control"
  }
]

----------
Measured T/C values are reported for all entries that follow.
Test system: Swiss mice, Sarcoma 180 sc, mean tumor weight T/C
Assay: NCI In Vivo Anticancer Drug Screen. Data for tumor model Sarcoma 180 (subcutaneous) in Swiss mice
Conditions: endpoint: mean tumor weight; dose: 110.0 mg/kg/injection; schedule: Q01DX007 (ip); vehicle: carboxymethylcellulose (CMC); higher = larger tumour
Square brackets hold non-standard residues; d marks the D form. Peptide text beside a SMILES is read from it. ξ: configuration not given here. Ac5c = NC1(C(=O)O)CCCC1; ξS = NC(CO)C(=O)O
observed-property: T/C

[
  {
    "compound": "NC(CO)C(=O)NC1(C(=O)O)CCCC1 (stereo unspecified) (H-[ξS]-[Ac5c]-OH)",
    "experimental-system": "Swiss mice, Sarcoma 180 sc, mean tumor weight T/C",
    "meas-value": "84 % of control"
  },
  {
    "compound": "CCOC(=O)Nc1ccc2c(c1)/C(=N\\NC(N)=S)c1ccccc1-2",
    "experimental-system": "Swiss mice, Sarcoma 180 sc, mean tumor weight T/C",
    "meas-value": "112 % of control"
  },
  {
    "compound": "COc1ccccc1NC(=O)CSC(N)=O",
    "experimental-system": "Swiss mice, Sarcoma 180 sc, mean tumor weight T/C",
    "meas-value": "78 % of control"
  },
  {
    "compound": "Cc1ncc(CO)c(C)c1O",
    "experimental-system": "Swiss mice, Sarcoma 180 sc, mean tumor weight T/C",
    "meas-value": "53 % of control"
  },
  {
    "compound": "CCNc1nncs1",
    "experimental-system": "Swiss mice, Sarcoma 180 sc, mean tumor weight T/C",
    "meas-value": "41 % of control"
  },
  {
    "compound": "O=CNc1c(Cl)c(Cl)c2c(c1Cl)Cc1cc(Cl)ccc1-2",
    "experimental-system": "Swiss mice, Sarcoma 180 sc, mean tumor weight T/C",
    "meas-value": "51 % of control"
  }
]

----------
Test system: Swiss mice, Sarcoma 180 sc, mean tumor weight T/C
Experiment: NCI In Vivo Anticancer Drug Screen. Data for tumor model Sarcoma 180 (subcutaneous) in Swiss mice
Conditions: endpoint: mean tumor weight; dose: 202.0 mg/kg/injection; schedule: Q01DX007 (ip); vehicle: carboxymethylcellulose (CMC); higher = larger tumour
observed-property: T/C

[
  {
    "structure-as-smiles": "CC(C)COC(=O)C1(N)CCCC1",
    "meas-value": "49 % of control"
  },
  {
    "structure-as-smiles": "CCCCOC(=O)C1(N)CCCC1",
    "meas-value": "33 % of control"
  },
  {
    "structure-as-smiles": "COC(=O)C1(N)CCCC1",
    "meas-value": "20 % of control"
  },
  {
    "structure-as-smiles": "Cc1ncc(CO)c(C)c1O",
    "meas-value": "71 % of control"
  }
]

----------
Test system: Swiss mice, Sarcoma 180 sc, mean tumor weight T/C
Assay: NCI In Vivo Anticancer Drug Screen. Data for tumor model Sarcoma 180 (subcutaneous) in Swiss mice
Conditions: endpoint: mean tumor weight; dose: 2.5 mg/kg/injection; schedule: Q#A X014 (ip); vehicle: methylcellulose (MC); higher = larger tumour

[
  {
    "compound": "C=CCOc1ccc2c(c1)CC[C@@H]1[C@@H]2CC[C@]2(C)[C@@H](O)[C@@H](O)C[C@@H]12",
    "experimental-system": "Swiss mice, Sarcoma 180 sc, mean tumor weight T/C",
    "T/C": "84 % of control"
  },
  {
    "compound": "N#[N+]c1nc[nH]c1C(N)=O",
    "experimental-system": "Swiss mice, Sarcoma 180 sc, mean tumor weight T/C",
    "T/C": "55 % of control"
  },
  {
    "compound": "COc1ccc2c(c1)CC[C@@H]1[C@@H]2CC[C@]2(C)C[C@@](C)(O)C[C@@H]12",
    "experimental-system": "Swiss mice, Sarcoma 180 sc, mean tumor weight T/C",
    "T/C": "94 % of control"
  },
  {
    "compound": "CC(C)([NH-])CO.CC(C)([NH-])CO.[Cl][Cd][Cl]",
    "experimental-system": "Swiss mice, Sarcoma 180 sc, mean tumor weight T/C",
    "T/C": "85 % of control"
  },
  {
    "compound": "O=CNC(Cc1cccc(N(CCCl)CCCl)c1)C(=O)O (stereo unspecified)",
    "experimental-system": "Swiss mice, Sarcoma 180 sc, mean tumor weight T/C",
    "T/C": "45 % of control"
  },
  {
    "compound": "CCCCn1cnc2c(=S)nc(N)[nH]c21",
    "experimental-system": "Swiss mice, Sarcoma 180 sc, mean tumor weight T/C",
    "T/C": "93 % of control"
  }
]
